Where do these numbers come from? They come from patent US8188059B2.

Task for the reader: assign each of the following substances its reported percent inhibition of DGAT2.
Test system: rat DGAT2 mRNA
Assay Protocol: Dose-dependent inhibition of DGAT2 in A10 cells, 6.25-200 nM (Example 22, Table 82)
Type: cell-based
Run Conditions: […]
Strand notation (5' to 3'): a small letter for the sugar, then the base; units joined by * are phosphorothioate-linked, units joined directly phosphodiester-linked; [ ] holds rarer units or linkages, { } end groups; capitals alone tell only the bases. e = 2'-O-(2-methoxyethyl) (MOE); [5mC] = 5-methylcytosine; d = 2'-deoxy (DNA)
Give bare numbers.

Provide percent inhibition of DGAT2 values for the following items, in order.
1. 372618 (antisense eG*eT*dG*dG*dT*dA*d[5mC]*dA*dG*dG*dT*d[5mC]*eG*eA) [compound 372618]
2. 372586 (antisense eG*eT*dT*d[5mC]*d[5mC]*dT*dG*dG*dT*dG*dG*dT*e[5mC]*eA) [compound 372586]
3. 372602 (antisense e[5mC]*e[5mC]*dA*dG*dG*d[5mC]*dA*dT*dG*dG*dA*dG*e[5mC]*eT) [compound 372602]
4. 372568 (antisense eG*eA*d[5mC]*dA*d[5mC]*dT*dG*d[5mC]*dA*dG*dG*d[5mC]*e[5mC]*eA) [compound 372568]
5. 372562 (antisense eG*eT*d[5mC]*dT*dT*dG*dG*dA*dG*dG*dG*d[5mC]*e[5mC]*eG) [compound 372562]

A.
1: 0; 2: 7; 3: 0; 4: 15; 5: 0

###

Task for the reader: assign each of the following substances its reported percent inhibition of rat DGAT2.
Test system: rat DGAT2 mRNA
Assay Protocol: Dose-dependent inhibition of DGAT2 in A10 cells, 0.62-150 nM (Example 22, Table 83)
Type: cell-based
Run Conditions: 50 nM
Strand notation (5' to 3'): a small letter for the sugar, then the base; units joined by * are phosphorothioate-linked, units joined directly phosphodiester-linked; [ ] holds rarer units or linkages, { } end groups; capitals alone tell only the bases. e = 2'-O-(2-methoxyethyl) (MOE); [5mC] = 5-methylcytosine; d = 2'-deoxy (DNA)
Numbers only.

Observe how each entry below is paired with its result.
>>> value("372578 (antisense eT*eG*dT*dG*dT*d[5mC]*dT*dT*d[5mC]*dA*d[5mC]*d[5mC]*eA*eG) [compound 372578]")
7
>>> value("372594 (antisense eA*e[5mC]*dA*dG*dA*dA*dG*dG*d[5mC]*dA*d[5mC]*d[5mC]*e[5mC]*eA) [compound 372594]")
2

Q. Provide only the value of recorded percent inhibition of rat DGAT2 for 372503 (antisense eG*e[5mC]*eA*dG*dG*dT*dT*dG*dT*dG*dT*dG*dT*e[5mC]*eT*eT) [compound 372503]
A. 54

###

Test system: rat DGAT2 mRNA
Assay Protocol: Dose-dependent inhibition of DGAT2 in A10 cells, 0.62-150 nM (Example 22, Table 83)
Format: cell-based
Run Conditions: 0.62 nM
Strand notation (5' to 3'): a small letter for the sugar, then the base; units joined by * are phosphorothioate-linked, units joined directly phosphodiester-linked; [ ] holds rarer units or linkages, { } end groups; capitals alone tell only the bases. e = 2'-O-(2-methoxyethyl) (MOE); [5mC] = 5-methylcytosine; d = 2'-deoxy (DNA)
Measured Attribute: percent inhibition of rat DGAT2
Answers are plain numbers.

>>> value("372516 (antisense eT*eA*e[5mC]*dA*dG*dA*dA*dG*dG*d[5mC]*dA*d[5mC]*d[5mC]*e[5mC]*eA*eG) [compound 372516]")
1

Provide percent inhibition of rat DGAT2 values for the following items, in order.
1. 372594 (antisense eA*e[5mC]*dA*dG*dA*dA*dG*dG*d[5mC]*dA*d[5mC]*d[5mC]*e[5mC]*eA) [compound 372594]
2. 372578 (antisense eT*eG*dT*dG*dT*d[5mC]*dT*dT*d[5mC]*dA*d[5mC]*d[5mC]*eA*eG) [compound 372578]

A.
1: 0; 2: 0
